Just for reference, patent US20230414702A1 is where these values come from.

Target: T1, CD47 receptor (UniProt Q08722 19-323, limits assumed)
T1 construct: whole, on cells; The assays used a whole MEC-1 cell membrane preparation, not purified CD47; also called membrane preparation from MEC-1 cells
T1 sequence (Q08722 19-323 limits assumed): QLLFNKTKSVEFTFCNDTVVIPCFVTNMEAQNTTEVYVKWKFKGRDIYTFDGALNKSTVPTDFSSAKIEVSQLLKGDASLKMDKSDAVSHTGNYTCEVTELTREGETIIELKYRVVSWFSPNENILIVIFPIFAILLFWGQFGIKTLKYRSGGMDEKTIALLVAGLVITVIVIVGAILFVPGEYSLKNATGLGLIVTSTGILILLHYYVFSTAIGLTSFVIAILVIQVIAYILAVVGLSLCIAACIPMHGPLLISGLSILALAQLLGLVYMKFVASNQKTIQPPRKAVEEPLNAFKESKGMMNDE
Assay: apparent Kd, biolayer interferometry (BI) on Octet RED96, biotinylated MEC-1 membrane preparation on SSA biosensors
Non-standard residues stand in square brackets, D forms with d. NMeR = CN[C@@H](CCCNC(=N)N)C(=O)O; Nle = CCCC[C@H](N)C(=O)O
Quantity Kind: Kd (µM)
Give bare numbers, in µM.

Consider the binder H-[dK][NMeR]FYVV[Nle]WK[dK]-OH [PKT16, H-(D)K ψ(CONMe)R F Y V V X W K (D)K-OH] and give its measured Kd. 7.4
